molecular target: CYP3A4 (Homo sapiens); test: Cytochrome P4503A4 inhibition assay, human liver microsomes, LC-MS/MS probe substrate method; settings: read-out: IC50 CYP3A4 (testosterone); human liver microsomes 0.1 mg/mL, 50 μM testosterone, 10 min
Sequence (P08684 whole entry): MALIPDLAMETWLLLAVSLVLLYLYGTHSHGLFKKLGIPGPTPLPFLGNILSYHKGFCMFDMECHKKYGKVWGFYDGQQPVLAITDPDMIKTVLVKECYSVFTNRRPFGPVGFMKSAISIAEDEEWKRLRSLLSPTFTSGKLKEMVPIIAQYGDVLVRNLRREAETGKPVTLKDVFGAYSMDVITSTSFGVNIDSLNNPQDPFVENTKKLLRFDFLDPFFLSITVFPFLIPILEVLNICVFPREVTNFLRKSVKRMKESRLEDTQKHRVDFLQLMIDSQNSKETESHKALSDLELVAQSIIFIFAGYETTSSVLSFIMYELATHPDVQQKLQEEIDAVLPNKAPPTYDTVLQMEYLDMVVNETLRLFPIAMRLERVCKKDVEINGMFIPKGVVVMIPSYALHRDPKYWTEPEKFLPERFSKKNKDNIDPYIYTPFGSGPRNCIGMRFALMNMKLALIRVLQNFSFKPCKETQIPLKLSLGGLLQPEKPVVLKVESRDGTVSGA
pIC50: −log10 of the molar value.

COMPOUND	pIC50
CCC1OC(=O)C(C)C(=O)C(C)C(OC2OC(C)CC(N(C)C)C2O)C(C)(OCC=Cc2cnc3ccccc3c2)CC(C)C(=O)C(C)C2N(CC3CCN(C)C3)C(=O)OC12C (stereo not shown) [Compound 13N]	5.11

###

system: S. pneumoniae AUCC489, macrolide & penicillin resistant; assay: Minimum inhibitory concentration (MIC), broth microdilution, AUCC489; format: cell-based, Streptococcus pneumoniae
ASSAY METRIC: MIC Strep. Pneumoniae AUCC 489 penR, macR cMLS

MOLECULE	ASSAY SYSTEM	OBSERVED RESULT
CCC1OC(=O)C(C)C(=O)C(C)C(OC2OC(C)CC(N(C)C)C2O)C(C)(OCC=Cc2cnc3ccccc3c2)CC(C)C(=O)C(C)C2N(CC3CCN(C)C3)C(=O)OC12C (stereo not drawn) [Compound 13N]	S. pneumoniae AUCC489, macrolide & penicillin resistant	0.5 to 1 µg/mL
CC[C@H]1OC(=O)[C@H](C)C(=O)[C@H](C)[C@@H](O[C@@H]2O[C@H](C)C[C@H](N(C)C)[C@H]2O)[C@](C)(OC/C=C/c2cnc3ccccc3c2)C[C@@H](C)C(=O)[C@H](C)[C@H]2N(CC3CCN(C)CC3)C(=O)O[C@]12C [Compound 13L]	S. pneumoniae AUCC489, macrolide & penicillin resistant	0.5 to 1 µg/mL
CC[C@H]1OC(=O)[C@H](C)[C@@H](O[C@H]2C[C@@](C)(OC)[C@@H](O)[C@H](C)O2)[C@H](C)[C@@H](O[C@@H]2O[C@H](C)C[C@H](N(C)C)[C@H]2O)[C@](C)(O)C[C@@H](C)C(=O)[C@H](C)[C@@H](O)[C@]1(C)O [erythromycin, reference compound]	S. pneumoniae AUCC489, macrolide & penicillin resistant	8 to 32 µg/mL
CC[C@H]1OC(=O)[C@H](C)C(=O)[C@H](C)[C@@H](O[C@@H]2O[C@H](C)C[C@H](N(C)C)[C@H]2O)[C@](C)(OC/C=C/c2cnc3ccccc3c2)C[C@@H](C)C(=O)[C@H](C)[C@H]2N(CCOC)C(=O)O[C@]12C [Compound 13E]	S. pneumoniae AUCC489, macrolide & penicillin resistant	>4 µg/mL
CC[C@H]1OC(=O)[C@@](C)(F)C(=O)[C@H](C)[C@@H](O[C@@H]2O[C@H](C)C[C@H](N(C)C)[C@H]2O)[C@](C)(OC)C[C@@H](C)C(=O)[C@H](C)[C@H]2N(CCCCn3cc(-c4cccc(N)c4)nn3)C(=O)O[C@]12C [solithromycin, reference compound]	S. pneumoniae AUCC489, macrolide & penicillin resistant	0.004 to 0.008 µg/mL
CC[C@H]1OC(=O)[C@H](C)C(=O)[C@H](C)[C@@H](O[C@@H]2O[C@H](C)C[C@H](N(C)C)[C@H]2O)[C@](C)(OC/C=C/c2cnc3ccccc3c2)C[C@@H](C)C(=O)[C@H](C)[C@H]2N(CC#N)C(=O)O[C@]12C [Compound 13H]	S. pneumoniae AUCC489, macrolide & penicillin resistant	0.25 to 1 µg/mL
